assay: Half life in rat liver microsomes; type: ADME
This section presents compounds with their documented half-life values.
Metric name: half-life

- COc1ccc2c(O[C@H]3C[C@H]4C(=O)N(C)CCCC/C=C/[C@@H]5C[C@@]5(C(=O)NS(=O)(=O)C5(C)CC5)NC(=O)N4C3)cc(-c3nc(C(C)C)cs3)nc2c1C: 1.87 h
- COc1ccc2c(O[C@H]3C[C@H]4C(=O)N(C)CCCC/C=C/[C@@H]5C[C@@]5(C(=O)NS(=O)(=O)C5(C)CC5)NC(=O)N4C3)cc(-c3nc(C(C)C)cs3)nc2c1Cl: 2.38 h
- COc1ccc2c(O[C@H]3C[C@H]4C(=O)N(C)CCCC/C=C/[C@@H]5C[C@@]5(C(=O)NS(=O)(=O)C5(C)CC5)NC(=O)N4C3)cc(-c3nc(C(F)(F)F)cs3)nc2c1C: 2.03 h
- COc1ccc2c(O[C@H]3C[C@H]4C(=O)N(C)CCCC/C=C/[C@@H]5C[C@@]5(C(=O)NS(=O)(=O)C5CC5)NC(=O)N4C3)cc(-c3csc(C(F)(F)F)n3)nc2c1C: 0.983 h
- COc1ccc2c(OC[C@@H]3C[C@H]4C(=O)N(C)CCCC/C=C/[C@@H]5C[C@@]5(C(=O)NS(=O)(=O)C5(C)CC5)NC(=O)N34)cc(-c3nc(C(C)C)cs3)nc2c1Cl: 0.133 h
- COc1ccc2c(OC[C@@H]3C[C@H]4C(=O)N(C)CCCC/C=C/[C@@H]5C[C@@]5(C(=O)NS(=O)(=O)C5(C)CC5)NC(=O)N34)cc(-c3nc(C(C)C)cs3)nc2c1C: 0.0633 h
